Procedure text: pKa
Assay type: physicochemical
Measurement conditions: weak acid of which sodium perillate is the salt

Molecule	pKa
C=C(C)[C@@H]1CC=C(C(=O)O)CC1 [perillic acid]	4.96

// data source = patent US11297835B2
